src = paper PMC10266688

Assay: Single dose pharmacokinetics in CD1 mice (IV, IP, PO), plasma LC-MS/MS
Type: in vivo, mouse
Conditions: male, CD1, mouse, in vivo, iv, 5 mg/kg
MEASURE: Cmax (ng/mL)

> print(dat)
                               smiles.input  measure  unit.descriptor  value
1  N#Cc1ccc(/C=C2/C(=O)/C(=C/c3ccc(C#N)cc3)C23CCNCC3)cc1     Cmax            ng/mL   1510

###

Assay: Single dose pharmacokinetics in CD1 mice (IV, IP, PO), plasma LC-MS/MS
Format: in vivo, mouse
Details: male, CD1, mouse, in vivo, iv, 5 mg/kg
MEASURE: Vd (L/kg)

> print(dat)
                               smiles.input  measure  value
1  N#Cc1ccc(/C=C2/C(=O)/C(=C/c3ccc(C#N)cc3)C23CCNCC3)cc1       Vd     10

###

Assay: Single dose pharmacokinetics in CD1 mice (IV, IP, PO), plasma LC-MS/MS; for Plasma concentration: key: BQL: Below the lower limit of quantitation (LLOQ)
Type: in vivo, mouse
Settings: male, CD1, mouse, in vivo, iv, 5 mg/kg, Plasma concentration
MEASURE: concentration at 30 min (ng/mL)

> print(dat)
                               smiles.input                  measure  unit.descriptor  value
1  N#Cc1ccc(/C=C2/C(=O)/C(=C/c3ccc(C#N)cc3)C23CCNCC3)cc1  concentration at 30 min            ng/mL   1530

###

Assay: Single dose pharmacokinetics in CD1 mice (IV, IP, PO), plasma LC-MS/MS
Assay type: in vivo, mouse
Conditions: mouse, plasma, intraperitoneal; CD1 mice, IP 20 mg/kg vs IV 5 mg/kg; read-out: IP bioavailability
MEASURE: bioavailability (%)

> print(dat)
                                   molecule  unit.descriptor  value
1  N#Cc1ccc(/C=C2/C(=O)/C(=C/c3ccc(C#N)cc3)C23CCNCC3)cc1 [Up284]                %     87

###

Assay: Single dose pharmacokinetics in CD1 mice (IV, IP, PO), plasma LC-MS/MS; for Plasma concentration: key: BQL: Below the lower limit of quantitation (LLOQ)
Assay type: in vivo, mouse
Details: CD-1, mouse, in vivo, ip, 20 mg/kg, Plasma concentration, Mean
MEASURE: concentration at 360 min (ng/mL)

> print(dat)
                               smiles.input  unit.descriptor  value
1  N#Cc1ccc(/C=C2/C(=O)/C(=C/c3ccc(C#N)cc3)C23CCNCC3)cc1            ng/mL    789

###

Test: Single dose pharmacokinetics in CD1 mice (IV, IP, PO), plasma LC-MS/MS; for Plasma concentration: key: BQL: Below the lower limit of quantitation (LLOQ)
Type: in vivo, mouse
Details: male, CD1, mouse, in vivo, iv, 5 mg/kg, Plasma concentration, Mean
MEASURE: concentration at 60 min (ng/mL)

> print(dat)
                               smiles.input  value
1  N#Cc1ccc(/C=C2/C(=O)/C(=C/c3ccc(C#N)cc3)C23CCNCC3)cc1    800

###

Assay: Single administration dose escalation study (MTD, body weight, clinical observations), female CD1 mice
Format: in vivo
Conditions: mouse, in vivo, po; female CD1 mice; read-out: MTD, single PO dose (not reached at maximum feasible dose)
MEASURE: MTD at 7 days

> print(dat)
                                   compound        value
1  N#Cc1ccc(/C=C2/C(=O)/C(=C/c3ccc(C#N)cc3)C23CCNCC3)cc1 [Up284]  ≥ 200 mg/kg

###

Assay: Single dose pharmacokinetics in CD1 mice (IV, IP, PO), plasma LC-MS/MS; for Plasma concentration: key: BQL: Below the lower limit of quantitation (LLOQ)
Type: in vivo, mouse
Details: male, CD1, mouse, in vivo, iv, 5 mg/kg, Plasma concentration, Mean
MEASURE: concentration at 480 min

> print(dat)
                               smiles.input                   measure      value
1  N#Cc1ccc(/C=C2/C(=O)/C(=C/c3ccc(C#N)cc3)C23CCNCC3)cc1  concentration at 480 min  190 ng/mL

###

Assay: Single administration dose escalation study (MTD, body weight, clinical observations), female CD1 mice
Format: in vivo
Settings: mouse, in vivo, iv; female CD1 mice; read-out: MTD, single IV dose (not reached at maximum feasible dose)
MEASURE: MTD at 7 days

> print(dat)
                               smiles.input       value
1  N#Cc1ccc(/C=C2/C(=O)/C(=C/c3ccc(C#N)cc3)C23CCNCC3)cc1  ≥ 60 mg/kg

###

Assay: Single dose pharmacokinetics in CD1 mice (IV, IP, PO), plasma LC-MS/MS
Assay type: in vivo, mouse
Conditions: male, CD1, mouse, in vivo, ip, 20 mg/kg
MEASURE: half-life (h)

> print(dat)
                               smiles.input  unit.descriptor  value
1  N#Cc1ccc(/C=C2/C(=O)/C(=C/c3ccc(C#N)cc3)C23CCNCC3)cc1                h   52.8

###

Test: Single dose pharmacokinetics in CD1 mice (IV, IP, PO), plasma LC-MS/MS; for Plasma concentration: key: BQL: Below the lower limit of quantitation (LLOQ)
Format: in vivo, mouse
Details: mouse, in vivo; CD-1 mice, IP 20 mg/kg, 5 min, individual (Groups A-D); read-out: Plasma concentration
Experimental: For single dose pharmacokinetic studies, plasma samples (40 μL) were mixed with 200 μL of a water-methanol mixture 1:9, v/v containing the internal standard elacridar at 400 ng/mL. […] The lower limit of quantitation (LLOQ) in plasma was 50 ng/mL. Pharmacokinetic parameters were calculated from mean concentration-time data using non-compartmental methods in Phoenix WinNonlin version 8.3 (Certara, Princeton, NJ). […] The AUClast was calculated using the log-linear trapezoidal method. […]
MEASURE: concentration at 5 min (ng/mL)

> print(dat)
                                   molecule                 measure  unit.descriptor  value
1  N#Cc1ccc(/C=C2/C(=O)/C(=C/c3ccc(C#N)cc3)C23CCNCC3)cc1 [Up284]  concentration at 5 min            ng/mL   1060

###

Test: Single dose pharmacokinetics in CD1 mice (IV, IP, PO), plasma LC-MS/MS; for Plasma concentration: key: BQL: Below the lower limit of quantitation (LLOQ)
Format: in vivo, mouse
Settings: CD-1, mouse, in vivo, ip, 20 mg/kg, Plasma concentration
MEASURE: concentration at 1440 min (ng/mL)

> print(dat)
                                   compound  value
1  N#Cc1ccc(/C=C2/C(=O)/C(=C/c3ccc(C#N)cc3)C23CCNCC3)cc1 [Up284]    750

###

Test: Single dose pharmacokinetics in CD1 mice (IV, IP, PO), plasma LC-MS/MS
Assay type: in vivo, mouse
Settings: male, CD1, mouse, in vivo, po, 50 mg/kg
Procedure: For single dose pharmacokinetic studies, plasma samples (40 μL) were mixed with 200 μL of a water-methanol mixture 1:9, v/v containing the internal standard elacridar at 400 ng/mL. […] The lower limit of quantitation (LLOQ) in plasma was 50 ng/mL. Pharmacokinetic parameters were calculated from mean concentration-time data using non-compartmental methods in Phoenix WinNonlin version 8.3 (Certara, Princeton, NJ). […] The AUClast was calculated using the log-linear trapezoidal method. […]
MEASURE: AUC(0-t) (ng·h/mL)

> print(dat)
                               smiles.input   measure  value
1  N#Cc1ccc(/C=C2/C(=O)/C(=C/c3ccc(C#N)cc3)C23CCNCC3)cc1  AUC(0-t)  15100

###

Experiment: Single dose pharmacokinetics in CD1 mice (IV, IP, PO), plasma LC-MS/MS; for Plasma concentration: key: BQL: Below the lower limit of quantitation (LLOQ)
Assay type: in vivo, mouse
Details: male, CD1, mouse, in vivo, iv, 5 mg/kg, Plasma concentration
MEASURE: concentration at 60 min (ng/mL)

> print(dat)
                               smiles.input  value
1  N#Cc1ccc(/C=C2/C(=O)/C(=C/c3ccc(C#N)cc3)C23CCNCC3)cc1    793

###

Test: Single dose pharmacokinetics in CD1 mice (IV, IP, PO), plasma LC-MS/MS; for Plasma concentration: key: BQL: Below the lower limit of quantitation (LLOQ)
Format: in vivo, mouse
Settings: CD-1, mouse, in vivo, ip, 20 mg/kg, Plasma concentration
MEASURE: concentration at 15 min (ng/mL)

> print(dat)
                               smiles.input  value
1  N#Cc1ccc(/C=C2/C(=O)/C(=C/c3ccc(C#N)cc3)C23CCNCC3)cc1   2480

###

Test: Single dose pharmacokinetics in CD1 mice (IV, IP, PO), plasma LC-MS/MS; for Plasma concentration: key: BQL: Below the lower limit of quantitation (LLOQ)
Assay type: in vivo, mouse
Conditions: CD-1, mouse, in vivo, ip, 20 mg/kg, Plasma concentration, Mean
MEASURE: concentration at 480 min (ng/mL)

> print(dat)
                                   compound                   measure  value
1  N#Cc1ccc(/C=C2/C(=O)/C(=C/c3ccc(C#N)cc3)C23CCNCC3)cc1 [Up284]  concentration at 480 min    731
